Data provenance is ChEMBL document CHEMBL2010702.

Quick reference for bioavailability among some molecules
TEST PROTOCOL: Oral bioavailability in rat at 2.5 mg/kg
Assay type: ADME, organism-based
STATED CONDITIONS: in vivo

>>> print(df.to_string())
                                smiles_repr  value_reported
0  CCc1n[nH]c2ncnc(N3CCN(c4cc(Cl)ccc4C)CC3)c12              2%

Tell me bioavailability reported for CCc1n[nH]c2ncnc(N3CCN(c4cc(Cl)cc(NCCN(C)C)c4C)CC3)c12
23%

---

TEST PROTOCOL: Volume of distribution in rat at 2.5 mg/kg, iv and 2.5 mg/kg, po
Type: ADME, organism-based
STATED CONDITIONS: in vivo
OBSERVED PROPERTY: Vd (L/kg)
All answers are understood in L/kg, so give the number only.

In [3]: df
Out[3]:
                                smiles_repr  value_reported
0  CCc1n[nH]c2ncnc(N3CCN(c4cc(Cl)cc(NCCN(C)C)c4C)CC3)c12             3.7

Quote Vd reported for CCc1n[nH]c2ncnc(N3CCN(c4cc(Cl)ccc4C)CC3)c12 please.
6.3
